Assignment: determine reported Delta G for the given molecules.
# testedOn: Fibroblast growth factor 2 (Homo sapiens)
# Sequence (P09038 143-288 limits assumed): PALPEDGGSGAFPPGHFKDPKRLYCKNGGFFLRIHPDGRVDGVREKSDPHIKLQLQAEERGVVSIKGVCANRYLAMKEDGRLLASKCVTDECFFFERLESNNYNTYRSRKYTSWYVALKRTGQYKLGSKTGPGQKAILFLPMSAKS
# testSummary: Binding affinity for Fibroblast growth factor 2

// worked examples, Delta G included
molecule	experimentalReadout	val
COC1C(OCc2ccccc2)C2COC(O2)C1OS(=O)(=O)O (stereo not drawn)	Delta G	-2.86 kcal/mol
O=S(=O)(O)OC[C@H]1OCC[C@@H](OCc2ccccc2)C1OS(=O)(=O)O (stereo partly drawn)	Delta G	-3.13 kcal/mol
[N-]=[N+]=NCC1OC(OS(=O)(=O)O)C(OS(=O)(=O)O)C(OS(=O)(=O)O)C1OS(=O)(=O)O (stereo not drawn)	Delta G	-4.89 kcal/mol
CO[C@@H]1CCO[C@H](COS(=O)(=O)O)C1OS(=O)(=O)O (stereo partly drawn)	Delta G	-2.39 kcal/mol
CO[C@H]1O[C@@H](COCC(=O)N(CCOS(=O)(=O)O)CC(=O)NC2CCCCC2)[C@@H](OS(=O)(=O)O)[C@H](OS(=O)(=O)O)[C@H]1OS(=O)(=O)O	Delta G	-4.44 kcal/mol
COC1OC(C)C(OCc2ccccc2)C(OS(=O)(=O)O)C1OS(=O)(=O)O (stereo not drawn)	Delta G	-4.91 kcal/mol
CO[C@@H]1O[C@@H](COS(=O)(=O)O)[C@@H](O[C@@H]2O[C@@H](COS(=O)(=O)O)[C@H](OS(=O)(=O)O)[C@H](OS(=O)(=O)O)[C@@H]2OS(=O)(=O)O)[C@H](OS(=O)(=O)O)[C@@H]1OS(=O)(=O)O	Delta G	-6.53 kcal/mol
O=S(=O)(O)OC[C@@H]1O[C@H](OS(=O)(=O)O)[C@H](OS(=O)(=O)O)[C@@H](OS(=O)(=O)O)[C@@H]1OS(=O)(=O)O	Delta G	-5.19 kcal/mol

Give me Delta G for each of these molecules, listed below.
1. O=C(CN(Cc1ccccc1)C(=O)C1OC(OS(=O)(=O)O)C(OS(=O)(=O)O)C(OS(=O)(=O)O)C1OS(=O)(=O)O)NC1CCCCC1 (stereo not drawn)
2. O=S(=O)(O)OC[C@@H]1O[C@H](OS(=O)(=O)O)[C@H](OC2O[C@@H](COS(=O)(=O)O)[C@@H](S(=O)(=O)O)[C@H](O[C@H]3O[C@@H](COS(=O)(=O)O)[C@@H](OS(=O)(=O)O)[C@H](OS(=O)(=O)O)[C@H]3OS(=O)(=O)O)[C@H]2OS(=O)(=O)O)[C@@H](OS(=O)(=O)O)[C@@H]1OS(=O)(=O)O (stereo partly drawn)

Response:
1. -4.67 kcal/mol
2. -8.08 kcal/mol

Give me Delta G for each of these molecules, listed below.
1. O=S(=O)(O)OC[C@H]1OCC[C@@H](OCCCOc2ccccc2)C1OS(=O)(=O)O (stereo partly drawn)
2. O=S(=O)(O)OC[C@@H]1O[C@H](O[C@H]2[C@H](OS(=O)(=O)O)[C@H](OS(=O)(=O)O)C(OS(=O)(=O)O)O[C@H]2COS(=O)(=O)O)[C@@H](OS(=O)(=O)O)[C@H](OS(=O)(=O)O)[C@H]1OS(=O)(=O)O (stereo partly drawn)
3. O=S(=O)(O)C[C@@H]1[C@@H](O[C@]2(COS(=O)(=O)O)O[C@H](COS(=O)(=O)O)[C@@H](OS(=O)(=O)O)[C@@H]2OS(=O)(=O)O)O[C@@H](CS(=O)(=O)O)[C@@H](OS(=O)(=O)O)[C@H]1OS(=O)(=O)O

Response:
1: -2.9 kcal/mol; 2: -7.09 kcal/mol; 3: -7.17 kcal/mol
